test system: P388 leukemia ip, CD2F1 mice, survival T/C; assay: NCI In Vivo Anticancer Drug Screen. Data for tumor model P388 Leukemia (intraperitoneal) in CD2F1 (CDF1) mice; conditions: endpoint: median survival time; dose: 100.0 mg/kg/injection; schedule: Q01DX001 (ip); vehicle: Klucel (hydroxypropylcellulose) (HPC); higher = longer survival
Toxic doses and inconclusive results are not listed.
measureName: T/C

Examples with their reported T/C follow.
CN(Cc1nc(-c2ccccc2)no1)c1nc(-c2ccccc2)no1
97 % of control
Cc1ccc(N2CCCCN(c3ccc(C)cc3)/C(c3ccccc3)=C\2c2ccccc2)cc1
91 % of control
NC(CC1=CS(=O)(=O)c2ccc(Cl)cc21)C(=O)O (configuration not stated)
101 % of control

query: P388 leukemia ip, CD2F1 mice, survival T/C / T/C / `O=C1CSC(=S)N1c1ccc(C(F)(F)F)cc1` : value?
result: 110 % of control

query: // map CC1OC2=C(CC1O)C(=O)c1ccccc1C2=O (configuration not stated) to recorded T/C (system: P388 leukemia ip, CD2F1 mice, survival T/C)
result: 102 % of control

query: Report T/C for `Cc1cccc(C)c1OC(=S)SSC(=S)Oc1c(C)cccc1C` tested on P388 leukemia ip, CD2F1 mice, survival T/C.
result: 94 % of control

query: Form: Entry = `Oc1ccccc1/C=N/Nc1nnnn1-c1ccccc1` | System = P388 leukemia ip, CD2F1 mice, survival T/C | T/C = ____
result: 102 % of control

query: Requested read-out T/C, target or system P388 leukemia ip, CD2F1 mice, survival T/C, entry `NC(=O)c1c(-c2ccccc2)nc2sccn12`
result: 98 % of control

query: Recall the recorded T/C for `COCc1nnc2c(N)nccn12` with P388 leukemia ip, CD2F1 mice, survival T/C and state it.
result: 99 % of control

query: Tell me reported T/C for `CCC(=O)NNc1cccc(Cl)n1` , tested with P388 leukemia ip, CD2F1 mice, survival T/C.
result: 94 % of control

query: Query for P388 leukemia ip, CD2F1 mice, survival T/C: what T/C does the record show for O=C1CC(C2(c3ccc4c(c3)OCO4)SCCCS2)CO1 (configuration not stated) ?
result: 101 % of control

query: Provide value of T/C for this record tested with P388 leukemia ip, CD2F1 mice, survival T/C: `Cn1c(=O)n(CCn2c(=O)n(C)c3ccccc32)c2ccccc21`
result: 91 % of control

----------
tested on: P388 leukemia ip, CD2F1 mice, survival T/C; test: NCI In Vivo Anticancer Drug Screen. Data for tumor model P388 Leukemia (intraperitoneal) in CD2F1 (CDF1) mice; details: endpoint: median survival time; dose: 120.0 mg/kg/injection; schedule: Q01DX005 (ip); vehicle: saline; higher = longer survival
Inconclusive results and toxic doses are left out. Peptide text beside a SMILES is read from it.
Listed below: T/C values for each entry.

# annotated cases, reported T/C shown
O=C1CCC(=O)N1CN1CCCCC1
113 % of control
CN(N=O)C1=NC(C)(CCl)P(=O)(NNc2ncccn2)O1 (stereo unspecified)
110 % of control
COC(=O)C1(CC(=O)c2ccc(OC)cc2)NC(=S)NC(=O)C1C#N (stereo unspecified)
98 % of control

query: Fill blank: measured T/C of the compound CC(C)CC(N)C(=O)NC(Cc1cnc[nH]1)C(=O)O (stereo not drawn) (H-Leu-His-OH; configuration not given here) is ____.
result: 106 % of control

query: Using the record for `N=C1C(O)=CC(=O)C(O)=C1C(=O)O` , report its T/C.
result: 103 % of control
